- assay overview: qHTS Validation assay for Inhibitors of Plasmodium falciparum Dd2 growth in vitro; also: nearly all actives have a fitted effect of over 70% in size
- setup conditions: P. falciparum Dd2 in RBCs, SYBR Green growth, 72 h; series mostly up to 28.7 µM
In all, about 4,100 compounds went through this assay and about 1,600 (39%) were called active. Not shown: some 25% with an inconclusive outcome. Calls follow the shape of the dose curve; as a rule, active = well fitted inhibition curve with a large enough effect; inconclusive = small, poorly fitted or top-dose-only effect; inactive = no such curve, though single readings can be large or run the other way. The list shows a part of the results.
Write down the outcome that applies. Available outcomes: active, inactive

Known results for compounds:
[[record]]
cpd_smiles = "CCCSc1ccc([C@H]2N[C@@](Cc3ccccc3)(C(=O)OC)[C@H]3C(=O)N(CC)C(=O)[C@@H]23)cc1"
assigned_class = "active"

[[record]]
cpd_smiles = "COc1ccc(-n2nc(C3CCN(Cc4ccc(C(F)(F)F)cc4)CC3)[nH]c2=O)cc1"
assigned_class = "inactive"

[[record]]
cpd_smiles = "Cc1ccc2[nH]c(-c3ccccc3)cc(=O)c2c1"
assigned_class = "active"

[[record]]
cpd_smiles = "Cc1ccccc1NC(=O)c1cc2c(-c3ccccc3)nn(-c3ccccc3)c2s1"
assigned_class = "active"

[[record]]
cpd_smiles = "Cc1ccc(C)c(OCCn2cc(C(=O)c3ccco3)c3ccccc32)c1"
assigned_class = "active"

[[record]]
cpd_smiles = "Cc1cc(Nc2ccc(C(C)C)cc2)n2ncnc2n1"
assigned_class = "active"


query: Status in this test for `COc1ccc(Nc2cc(C)nc3ncnn23)cc1Cl` ?
result: inactive

query: Could you check what this test reported for `CCCCCCc1cc2cc(-c3nnc(-c4ccc(C)cc4)o3)c(=O)oc2cc1O` ?
result: inactive

----------
- assay overview: qHTS Validation assay for Inhibitors of Plasmodium falciparum Dd2 growth in vitro; also: nearly all actives have a fitted effect of over 70% in size
- setup conditions: P. falciparum Dd2 in RBCs, SYBR Green growth, 72 h; series mostly up to 28.7 µM
About 1,600 (39%) of roughly 4,100 compounds were called active. Roughly 25% stayed inconclusive and do not appear here. The call rests on the fitted dose curve; in most records, active means well fitted inhibition curve with a large enough effect; inconclusive means small, poorly fitted or top-dose-only effect; inactive means no such curve, though single readings can be large or run the other way. This is one part of the list.
# valid calls are active, inactive; nothing else

Reference set, count: 5
[[record]]
compound = "OC(c1ccc(Cl)cc1)C(CN1CCOCC1)c1ccccc1 (configuration not stated)"
assigned_class = "active"

[[record]]
compound = "CN(C)C(=O)C1CN(C(=O)Nc2cccc(Br)c2)CC12CCOCC2 (configuration not stated)"
assigned_class = "inactive"

[[record]]
compound = "COc1ccc(CNC(=O)CCCn2c(=O)c3cccn3c3ccc(F)cc32)cc1OC"
assigned_class = "inactive"

[[record]]
compound = "CCOC(=O)c1cc(-c2ccc(OC)cc2)n(CCC(=O)Nc2cccc(C(C)=O)c2)c1C"
assigned_class = "active"

[[record]]
compound = "O=c1c(-c2ccccc2)n[nH]c2ccccc12"
assigned_class = "inactive"


query: # outcome recorded in this test, key = `Cc1cc(NC2CCCCC2)nc(NCc2ccccc2)n1`
result: active

query: Record lookup: outcome of this test for COC(=O)C1C2C=CC3(CN(Cc4cccs4)C(=O)C13)O2 (configuration not stated) ?
result: inactive

query: Just curious, what result did CCCCC(O)(c1ccc(F)cc1)C(CN1CCOCC1)c1ccc(Cl)cc1 (configuration not stated) get here?
result: active

query: # fetch the recorded call for `CCOC(=O)c1cccc(NC(=O)C2=C(C)C(=O)OC23CCCCC3)c1` here
result: inactive

----------
- assay overview: qHTS Validation assay for Inhibitors of Plasmodium falciparum Dd2 growth in vitro; also: nearly all actives have a fitted effect of over 70% in size
- setup conditions: P. falciparum Dd2 in RBCs, SYBR Green growth, 72 h; series mostly up to 28.7 µM
Out of some 4,100 compounds screened, about 1,600 (39%) were called active. Not shown: some 25% with an inconclusive outcome. The call rests on the fitted dose curve; in most records, active means well fitted inhibition curve with a large enough effect; inconclusive means small, poorly fitted or top-dose-only effect; inactive means no such curve, though single readings can be large or run the other way. Some of the results follow.
Lab note: assign the record to one of TRUE (active), FALSE (inactive)

These recorded examples may help you get a feel for the data.
[[record]]
compound = "C/C(=N\\Nc1nc(-c2ccccc2O)nc2ccccc12)c1ccccc1"
assigned_class = "TRUE"

[[record]]
compound = "O=c1[nH]c(C2CCCN(Cc3ccc(F)cc3)C2)nn1-c1ccc(Cl)cc1 (stereo not given)"
assigned_class = "FALSE"

[[record]]
compound = "CCOCCCNC(=O)CN1C(=O)c2c(c3ccccc3n2C)C1c1ccc(OC)cc1 (stereo not given)"
assigned_class = "FALSE"

[[record]]
compound = "O=C(Nc1nccs1)C1c2ccccc2C(=O)N(C2CCCC2)C12CCCC2 (stereo not given)"
assigned_class = "TRUE"

[[record]]
compound = "CC(=O)Nc1cccc(-c2cn(C)c(=O)n3cc(COc4ccccc4)nc23)c1"
assigned_class = "FALSE"


query: Which result was noted for this compound in the test: `CN(C)CCCNc1cc(N2CCN(C3CCCCC3)CC2)c2noc3c2c1C(=O)c1ccccc1-3`
result: TRUE

query: For this compound, state the assay outcome: O=C(COc1ccccc1)N1CCCC(n2cc(-c3nc(C4CC4)no3)nn2)C1 (stereo not given)
result: FALSE

query: Check the results log: what was the call for `Oc1ccccc1Nc1nc(-c2ccccc2O)nc2ccccc12` ?
result: TRUE

query: # outcome recorded in this test, key = `CNCC(=O)N1C[C@@H](C(=O)O)[C@H](c2ccccc2)C1`
result: FALSE

query: Dear all, I need the recorded test outcome for OC(CNCC(c1ccco1)N1CCCCC1)c1ccccc1 (stereo not given) , thank you.
result: TRUE

----------
- assay overview: qHTS Validation assay for Inhibitors of Plasmodium falciparum Dd2 growth in vitro; also: nearly all actives have a fitted effect of over 70% in size
- setup conditions: P. falciparum Dd2 in RBCs, SYBR Green growth, 72 h; series mostly up to 28.7 µM
The campaign covered roughly 4,100 compounds. About 1,600 (39%) were called active. Not shown: some 25% with an inconclusive outcome. Calls follow the shape of the dose curve; as a rule, active = well fitted inhibition curve with a large enough effect; inconclusive = small, poorly fitted or top-dose-only effect; inactive = no such curve, though single readings can be large or run the other way. This is one part of the list.
Reply using exactly one outcome from active, inactive

Example entries and their recorded answers appear below.
[[record]]
compound = "Cc1nc(C)c(C(=O)N2CC(Oc3ccc(-c4noc(-c5ccccc5)n4)cc3)C2)s1"
assigned_class = "inactive"

[[record]]
compound = "Cc1noc(C)c1CCC(=O)NC1CCc2nn(CC3CC3)c(=O)n2CC1 (stereo not given)"
assigned_class = "inactive"

[[record]]
compound = "COC(=O)c1c(NC(=O)/C(C#N)=C/c2ccc(OC)cc2)sc2c1CCC2"
assigned_class = "inactive"

[[record]]
compound = "CCSc1nnc(SCC(=O)c2c(N)n(C)c(=O)n(C)c2=O)s1"
assigned_class = "inactive"

[[record]]
compound = "CCCCC(=O)NC(c1ccccc1OC)c1ccc2cccnc2c1O (stereo not given)"
assigned_class = "active"

[[record]]
compound = "COc1cccc(C(NC(C)=O)c2ccc3cccnc3c2O)c1 (stereo not given)"
assigned_class = "active"


query: Which outcome did this test record for the compound CCCC(=O)NC(c1ccc(C(C)C)cc1)c1ccc2cccnc2c1O (stereo not given) ?
result: active

query: Entry `CCOc1ccc(C(=O)NCc2nc3cccnc3n2Cc2cccc(OC)c2)cc1` : call = ?
result: inactive

query: Given `CCOc1cc2[nH]c(=O)n(Cc3ccc(C(=O)N4CCN(c5cccc(Cl)c5)CC4)cc3)c(=O)c2cc1OCC` , state the outcome it received in this test.
result: inactive

query: Record lookup: outcome of this test for `CCn1cc(CN2CC(Oc3ccc(-c4noc(-c5ccncc5)n4)cc3)C2)cn1` ?
result: active

----------
- assay overview: qHTS Validation assay for Inhibitors of Plasmodium falciparum Dd2 growth in vitro; also: nearly all actives have a fitted effect of over 70% in size
- setup conditions: P. falciparum Dd2 in RBCs, SYBR Green growth, 72 h; series mostly up to 28.7 µM
Among all 4,100 compounds or so, about 1,600 (39%) were called active. Another 25% or so got no clear call; they are omitted. Calls come from the whole dose curve; as a rule, active = well fitted inhibition curve with a large enough effect; inconclusive = small, poorly fitted or top-dose-only effect; inactive = no such curve, though single readings can be large or run the other way. This is one part of the list.
Output constraint: value belongs to Y (active), N (inactive)

Example entries and their recorded answers appear below.
[[record]]
compound = "O=C(c1nnc(COc2ccc(OC(F)(F)F)cc2)n1-c1ccccc1)N1CCC[C@@H]1C(c1ccccc1)c1ccccc1"
assigned_class = "Y"

[[record]]
compound = "C#CCNC(=O)C[C@@H]1c2nc(NC(=O)OCC=C)sc2C[C@@H]2[C@](C)(CO)[C@H](O)CC[C@]21C"
assigned_class = "Y"


query: Entry `COC(=O)c1ccc(NC(=O)Nc2cccc(F)c2)cc1` : call = ?
result: N

query: How was `Cn1nc(C(F)(F)F)c(Cl)c1C(=O)N[C@@H]1CCNC[C@H]1O` classified in this test?
result: N

query: For `Cn1nc(C(F)(F)F)c(-c2cccc(C(F)(F)F)c2)c1NC(=O)Nc1ccc(F)cc1` , which call appears in the assay record?
result: Y

----------
- assay overview: qHTS Validation assay for Inhibitors of Plasmodium falciparum Dd2 growth in vitro; also: nearly all actives have a fitted effect of over 70% in size
- setup conditions: P. falciparum Dd2 in RBCs, SYBR Green growth, 72 h; series mostly up to 28.7 µM
Screen size: about 4,100 compounds; about 1,600 (39%) were called active. Not shown: some 25% with an inconclusive outcome. Calls follow the shape of the dose curve; as a rule, active = well fitted inhibition curve with a large enough effect; inconclusive = small, poorly fitted or top-dose-only effect; inactive = no such curve, though single readings can be large or run the other way. The list shows a part of the results.
Can you answer with just one of these options? true for active, false for inactive

Here are 2 compounds together with their reported answers.
[[record]]
compound = "Cc1ccc(NC(=O)CSc2n[nH]c(-c3ccccn3)n2)cc1"
assigned_class = "false"

[[record]]
compound = "O=C(c1cc(F)ccc1F)N1CC(c2nnc(-c3ccncc3)o2)C2(CCOCC2)C1 (stereo not given)"
assigned_class = "false"


query: Hi, do you know how `COc1ccc(-c2cc(N3CCN(C(=O)c4c[nH]c5ccccc45)CC3)n[nH]2)cc1` came out in this test?
result: true

query: Status in this test for `COc1ccc(/C=N/Nc2nc(Nc3ccccc3)nc(N3CCCC3)n2)cc1[N+](=O)[O-]` ?
result: true

query: Record request — test call for Cc1c(CN2CCN(CC(C)(C)C)C(CCO)C2)[nH]c2ccccc12 (stereo not given)
result: true

The origin of these recorded values is PubChem BioAssay AID1347416.
